System: pAKT(Ser473) in MDA-MB-468 cells
Assay: pAKT(Ser473) assay in MDA-MB-468 cells
Type: cell-based
Settings: Homo sapiens, 0.5 h, compound treatment 30 minutes, MSD ELISA phospho AKT(Ser473), given as ranges, read-out: Cell Activity—pAKT IC50 in MDA-MB-468
IC50 reference

compound	IC50
Cc1nn2c(-c3nc[nH]n3)cc(N3CCOCC3)nc2c1Cc1cccc2ccccc12 [Example 40]	< 1 µM
Cc1nn2c(C(=O)O)cc(N3CCOCC3)nc2c1Cc1cccc2ccccc12 [Example 37]	1 to 5 µM
Cc1cccc(Cc2cnn3c(O)cc(-c4ccncc4)nc23)c1C [Example 14]	1 to 5 µM
Cn1c(=O)c(Cc2cccc(Cl)c2Cl)c2nc(-c3ccncc3)cc(O)n21 [Example 50]	6 to 10 µM
Cc1nn2c(O)cc(N3CCOC(C)C3)nc2c1Cc1cccc(C(F)(F)F)c1C (stereo not drawn) [Example 2]	1 to 5 µM

Briefly, IC50 measured for Cc1c(Cc2c(O)nn3c(O)cc(C4CCOCC4)nc23)cccc1C(F)(F)F [Example 19] : > 20 µM

The compound listed as Cc1ccccc1Cc1c(C)nn2c(O)cc(-c3ccncc3)nc12 [Example 29] shows IC50 equal to 1 to 5 µM

Query Cc1nn2c(O)cc(C3CCOCC3)nc2c1Cc1cccc(C(F)(F)F)c1C [Example 4] yields IC50 of 6 to 10 µM

Just so you know, measured IC50 for Cc1c(Cc2cnn3c(-c4cn[nH]c4)cc(N4CCOCC4)nc23)cccc1C(F)(F)F [Example 48] came out at > 20 µM

// recorded IC50 for Cc1c(Cc2cnn3c(O)cc(N4CCOCC4)nc23)cccc1C(F)(F)F [Example 11] : 1 to 5 µM

Sourced from patent US9096605B2
